Assay: Toxicity in athymic nu/nu mouse assessed as maximum tolerated dose
Format: organism-based
Details: in vivo, read-out: Activity
MTD for assorted molecules
Give just the number in mg/kg; leave the unit off.

structureSmiles | MTD, mg/kg
CNC(=O)OCc1c(COC(=O)NC)c(-c2ccccc2OC)n2c1Cc1ccccc1-2 | 15

// recorded MTD for `Cc1c(CO)c(CO)c2n1-c1ccccc1C2` : 18

// recorded MTD for `CCc1c(CO)c(CO)c2n1-c1ccccc1C2` : 50

// recorded MTD for `CNC(=O)OCc1c(COC(=O)NC)c(-c2ccc(OC)cc2)n2c1Cc1ccccc1-2` : 5

---

System: Nucleic Acid
Test: Induction of pEGFP-N1 plasmid DNA interstrand cross-linking at 10 uM after 2 hrs by alkaline agarose gel shift assay
Format: nucleic-acid assay
The source made the active and inactive calls. The rule behind the calls is not given here.
propertyLabel: Activity

structureSmiles | Activity
CNC(=O)OCc1c(COC(=O)NC)c(-c2ccc(OC)cc2)n2c1Cc1ccccc1-2 | Active
COc1ccc(-c2c(CO)c(CO)c3n2-c2ccc(OC)cc2C3)cc1 | Active
Cc1c(CO)c(CO)c2n1-c1ccccc1C2 | Active
CCc1c(CO)c(CO)c2n1-c1ccccc1C2 | Active
CNC(=O)OCc1c(COC(=O)NC)c(-c2ccc(OC)cc2)n2c1Cc1cc(OC)ccc1-2 | Active

Now for a further compound.
// recorded Activity for `CNC(=O)OCc1c(COC(=O)NC)c(-c2ccccc2OC)n2c1Cc1ccccc1-2` : Active

---

System: CCRF-CEM
Assay: Cytotoxicity against human vinblastine-resistant CCRF-CEM cells after 72 hrs by XTT assay
Type: functional, cell-based
IC50 for assorted compounds
Give just the number in nM; leave the unit off.

IC50 value, target or system CCRF-CEM, for `COc1cc(-c2c(CO)c(CO)c3n2-c2ccccc2C3)cc(OC)c1OC` : 990

IC50 value, target or system CCRF-CEM, for `CNC(=O)OCc1c(COC(=O)NC)c(-c2ccc(Cl)cc2)n2c1Cc1ccccc1-2` : 2300

IC50 value, target or system CCRF-CEM, for `COc1cccc(OC)c1-c1c(CO)c(CO)c2n1-c1ccccc1C2` : 7500

IC50 value, target or system CCRF-CEM, for `CNC(=O)OCc1c(COC(=O)NC)c(-c2ccccc2OC)n2c1Cc1ccccc1-2` : 360

---

Ratio IC50 for assorted compounds
Tested on: CCRF-CEM
Test: Cross-resistance, IC50 for human taxol-resistant CCRF-CEM cells to IC50 for human CCRF-CEM cells
Type: functional

Some compounds with known Ratio IC50 results, for comparison:
compound | Ratio IC50
CNC(=O)OCc1c(COC(=O)NC)c(-c2ccc(OC)cc2)n2c1Cc1cc(OC)ccc1-2 | 1
CNC(=O)OCc1c(COC(=O)NC)c2n(c1C)-c1ccccc1C2 | 0.67

Ratio IC50 value, target or system CCRF-CEM, for `CNC(=O)OCc1c(COC(=O)NC)c(-c2cc(OC)c(OC)c(OC)c2)n2c1Cc1ccccc1-2` : 0.73

Ratio IC50 value, target or system CCRF-CEM, for `CNC(=O)OCc1c(COC(=O)NC)c(-c2c(OC)cccc2OC)n2c1Cc1ccccc1-2` : 1.1

Ratio IC50 value, target or system CCRF-CEM, for `CNC(=O)OCc1c(COC(=O)NC)c(-c2ccc(Cl)cc2)n2c1Cc1ccccc1-2` : 0.58

Ratio IC50 value, target or system CCRF-CEM, for `COc1ccccc1-c1c(CO)c(CO)c2n1-c1ccccc1C2` : 1.9

Ratio IC50 value, target or system CCRF-CEM, for `COc1cccc(OC)c1-c1c(CO)c(CO)c2n1-c1ccccc1C2` : 0.76

Ratio IC50 value, target or system CCRF-CEM, for `OCc1c(CO)c(-c2ccc(Cl)cc2)n2c1Cc1ccccc1-2` : 0.55

Ratio IC50 value, target or system CCRF-CEM, for CC[C@]1(O)C[C@@H]2CN(CCc3c([nH]c4ccccc34)[C@@](C(=O)OC)(c3cc4c(cc3OC)N(C)[C@H]3[C@@](O)(C(=O)OC)[C@H](OC(C)=O)[C@]5(CC)C=CCN6CC[C@]43[C@@H]65)C2)C1 [VINBLASTINE] : 685

---

Test system: Nucleic Acid
Assay: Induction of pEGFP-N1 plasmid DNA interstrand cross-linking at 20 uM after 2 hrs by alkaline agarose gel shift assay
Assay type: nucleic-acid assay
Active and inactive are the calls of the source. No cut-off for these calls is given here.
propertyLabel: Activity

Some molecules with known Activity results, for comparison:
structureSmiles | Activity
CNC(=O)OCc1c(COC(=O)NC)c(-c2ccc(OC)cc2)n2c1Cc1ccccc1-2 | Active
Cc1c(CO)c(CO)c2n1-c1ccccc1C2 | Active
CNC(=O)OCc1c(COC(=O)NC)c(-c2ccc(OC)cc2)n2c1Cc1cc(OC)ccc1-2 | Active
CNC(=O)OCc1c(COC(=O)NC)c(-c2ccccc2OC)n2c1Cc1ccccc1-2 | Active
CCc1c(CO)c(CO)c2n1-c1ccccc1C2 | Active

Now for a further molecule.
// recorded Activity for `COc1ccc(-c2c(CO)c(CO)c3n2-c2ccc(OC)cc2C3)cc1` : Active

---

IC50 for assorted compounds
System: PC-3
Experiment: Cytotoxicity against human PC3 cells after 72 hrs by WST-1 assay
Assay type: functional, cell-based
Conditions: PC-3, 72 h
Give just the number in µM; leave the unit off.

Some compounds with known IC50 results, for comparison:
structureSmiles | target | propertyLabel | assayResult
COc1ccc(-c2c(CO)c(CO)c3n2-c2ccccc2C3)cc1 | PC-3 | IC50 | 55.5
CNC(=O)OCc1c(COC(=O)NC)c2n(c1C)-c1ccccc1C2 | PC-3 | IC50 | 27.2
Cc1c(CO)c(CO)c2n1-c1ccccc1C2 | PC-3 | IC50 | 19.7
CNC(=O)OCc1c(COC(=O)NC)c(-c2ccc(OC)cc2)n2c1Cc1cc(OC)ccc1-2 | PC-3 | IC50 | 22
CNC(=O)OCc1c(COC(=O)NC)c(-c2ccc(OC)cc2)n2c1Cc1ccccc1-2 | PC-3 | IC50 | 38.2

IC50 value, target or system PC-3, for `CCc1c(CO)c(CO)c2n1-c1ccccc1C2` : 16.6

IC50 value, target or system PC-3, for `COc1ccc(-c2c(CO)c(CO)c3n2-c2ccc(OC)cc2C3)cc1` : 23.2

---

Test: Cytotoxicity against human OECM1 cells after 72 hrs by WST-1 assay
Type: functional, cell-based
Details: OECM1, 72 h
propertyLabel: pIC50
Here pIC50 is given on a logarithmic scale as minus log10 of the concentration in mol/L.

Some compounds with known pIC50 results, for comparison:
structureSmiles | pIC50
CCc1c(CO)c(CO)c2n1-c1ccccc1C2 | 5.91
CNC(=O)OCc1c(COC(=O)NC)c(-c2ccc(OC)cc2)n2c1Cc1ccccc1-2 | 5.33
CNC(=O)OCc1c(COC(=O)NC)c2n(c1C)-c1ccccc1C2 | 5.84
Cc1c(CO)c(CO)c2n1-c1ccccc1C2 | 6.07
COc1ccc(-c2c(CO)c(CO)c3n2-c2ccccc2C3)cc1 | 5.03

// recorded pIC50 for `CCc1c(COC(=O)NC)c(COC(=O)NC)c2n1-c1ccccc1C2` : 4.93

// recorded pIC50 for `COc1ccc(-c2c(CO)c(CO)c3n2-c2ccc(OC)cc2C3)cc1` : 5.81

// recorded pIC50 for `CNC(=O)OCc1c(COC(=O)NC)c(-c2ccc(OC)cc2)n2c1Cc1cc(OC)ccc1-2` : 5.90

---

Test system: CCRF-CEM
Assay: Cross-resistance, IC50 for human taxol-resistant CCRF-CEM cells to IC50 for human CCRF-CEM cells
Assay type: functional
Ratio IC50 for assorted molecules
Keep it simple and answer with nothing but the number.

Some molecules with known Ratio IC50 results, for comparison:
structureSmiles | propertyLabel | assayResult
CNC(=O)OCc1c(COC(=O)NC)c(-c2ccccc2OC)n2c1Cc1ccccc1-2 | Ratio IC50 | 1.8
CNC(=O)OCc1c(COC(=O)NC)c(-c2ccc(F)cc2)n2c1Cc1ccccc1-2 | Ratio IC50 | 2.2
CNC(=O)OCc1c(COC(=O)NC)c(-c2ccc(OC)c(OC)c2)n2c1Cc1ccccc1-2 | Ratio IC50 | 1.1
COc1ccc(-c2c(CO)c(CO)c3n2-c2ccccc2C3)cc1 | Ratio IC50 | 1.5
COc1ccc(-c2c(CO)c(CO)c3n2-c2ccccc2C3)cc1OC | Ratio IC50 | 1.1
OCc1c(CO)c(-c2ccc(F)c(F)c2)n2c1Cc1ccccc1-2 | Ratio IC50 | 1.4

Now for a further molecule.
// recorded Ratio IC50 for `OCc1c(CO)c(-c2ccc(F)cc2)n2c1Cc1ccccc1-2` : 1.6

---

Tested on: CCRF-CEM
Assay: Cytotoxicity against human vinblastine-resistant CCRF-CEM cells after 72 hrs by XTT assay
Type: functional, cell-based
IC50 for assorted compounds
Give just the number in nM; leave the unit off.

structureSmiles | IC50 [nM]
COc1ccccc1-c1c(CO)c(CO)c2n1-c1ccccc1C2 | 2700
OCc1c(CO)c(-c2ccc(F)c(F)c2)n2c1Cc1ccccc1-2 | 7500
CNC(=O)OCc1c(COC(=O)NC)c2n(c1C)-c1ccccc1C2 | 63
CNC(=O)OCc1c(COC(=O)NC)c(-c2c(OC)cccc2OC)n2c1Cc1ccccc1-2 | 620
COc1ccc(-c2c(CO)c(CO)c3n2-c2ccccc2C3)cc1OC | 1900

// recorded IC50 for `CNC(=O)OCc1c(COC(=O)NC)c(-c2cc(OC)c(OC)c(OC)c2)n2c1Cc1ccccc1-2` : 14000

Cited source for all entries: ChEMBL document CHEMBL1152415
